Tested on: upland rice (Oryza sp., var.Tebonnet, RICE)
Assay: Post-emerge greenhouse test, crop damage rating
Format: in vivo
Details: rate 250 g ai/ha, 14 days after application, scale 0-100
compounds and their reported crop damage rating RICE
Measurement Kind: crop damage rating RICE

compound="CCOC(=O)C(C)Oc1cc([N+](=O)[O-])c(Oc2cc(-n3c(=O)n4n(c3=S)CCCC4)c(F)cc2Cl)cc1Cl (stereo not drawn)" experimental_system="upland rice (Oryza sp., var.Tebonnet, RICE)" result=50
compound=O=c1n(-c2cc(Oc3ncc([N+](=O)[O-])s3)c(Cl)cc2F)c(=S)n2n1CCCC2 experimental_system="upland rice (Oryza sp., var.Tebonnet, RICE)" result=30
compound=Nc1cccnc1Oc1cc(-n2c(=O)n3n(c2=S)CCCC3)c(F)cc1Cl experimental_system="upland rice (Oryza sp., var.Tebonnet, RICE)" result=0
compound="CCOC(=O)C(C)Oc1ccc(Oc2cc(-n3c(=O)n4n(c3=S)CCCC4)c(F)cc2Cl)c(N)c1 (stereo not drawn)" experimental_system="upland rice (Oryza sp., var.Tebonnet, RICE)" result=0
compound=CSc1cccnc1Oc1cc(-n2c(=O)n3n(c2=S)CCCC3)c(F)cc1Cl experimental_system="upland rice (Oryza sp., var.Tebonnet, RICE)" result=30
compound="CCOC(=O)C(C)Oc1ccc(Oc2cc(-n3c(=O)n4n(c3=O)CCCC4)c(F)cc2Cl)c([N+](=O)[O-])c1 (stereo not drawn)" experimental_system="upland rice (Oryza sp., var.Tebonnet, RICE)" result=0
